Test: In vivo inhibition of biosynthesis of leukotriene in rat peritoneal anaphylaxis model at 200 uM/Kg
Type: functional
recorded metric: Inhibition

query: Entry CC(=O)N(O)C(C)c1ccc(OC2c3ccccc3-c3ccccc32)cc1 (centres undefined) : reported Inhibition = ?
result: <40%

query: Now this one: CC(=O)N(O)C(C)c1ccc(OC(c2ccccc2)C(C)C)cc1 (centres undefined)
result: <40%

query: Follow-up entry: CC(=O)N(O)C(C)c1ccc(OCc2c(C)cc(C)cc2C)cc1 (centres undefined)
result: <40%

query: Moving on to the next compound: CC(=O)N(O)C(C)c1ccc(C(C)Oc2ccccc2)cc1 (centres undefined)
result: 47%

----------
Target: Polyunsaturated fatty acid 5-lipoxygenase (Rattus norvegicus)
Assay: In vitro inhibition of 5-lipoxygenase from RBL-1 cells
recorded metric: IC50 (nM)
Report as a plain number; the unit nM is understood.

query: Need IC50, item CC(=O)N(O)C(C)c1ccc(C(C)Oc2ccccc2)cc1 (configuration not stated)
result: 460

query: Proceed to CC(=O)N(O)C(C)c1ccc(Oc2ccccc2)cc1 (configuration not stated)
result: 370

query: Try the compound CC(c1ccc(OCc2ccccc2)cc1)N(O)C(=O)c1ccccc1 (configuration not stated)
result: 690

query: Lookup CCCCOc1ccc(CN(O)C(C)=O)cc1
result: 1100

query: Please give the result for CC(=O)N(O)C(C)c1ccc(/C=C/c2ccccc2)cc1 (configuration not stated) too.
result: 290

query: Same question, CCCCOc1ccc(C(CCCC)N(O)C(C)=O)cc1 (configuration not stated) this time
result: 570

query: Again, but for CC(=O)N(O)Cc1ccc(OCc2ccccc2)cc1
result: 460

query: // query: CC(c1ccc(OCc2ccccc2)cc1)N(O)C=O (configuration not stated)
result: 940

query: Record: CC(=O)N(O)C(C)c1ccccc1OCc1ccccc1 (configuration not stated)
result: 760

query: Proceed to CCCCOc1ccc(C(C(C)C)N(O)C(C)=O)cc1 (configuration not stated)
result: 880

query: Try CC(=O)N(O)C(C)c1cccc(OCc2ccccc2)c1 (configuration not stated) next.
result: 330

query: Quick one: CC(=O)N(O)C(C)c1ccc(OC(C)c2ccccc2)cc1 (configuration not stated)
result: 500

----------
Biological target: Polyunsaturated fatty acid 5-lipoxygenase (Rattus norvegicus, UniProt P12527)
Sequence (P12527 whole entry): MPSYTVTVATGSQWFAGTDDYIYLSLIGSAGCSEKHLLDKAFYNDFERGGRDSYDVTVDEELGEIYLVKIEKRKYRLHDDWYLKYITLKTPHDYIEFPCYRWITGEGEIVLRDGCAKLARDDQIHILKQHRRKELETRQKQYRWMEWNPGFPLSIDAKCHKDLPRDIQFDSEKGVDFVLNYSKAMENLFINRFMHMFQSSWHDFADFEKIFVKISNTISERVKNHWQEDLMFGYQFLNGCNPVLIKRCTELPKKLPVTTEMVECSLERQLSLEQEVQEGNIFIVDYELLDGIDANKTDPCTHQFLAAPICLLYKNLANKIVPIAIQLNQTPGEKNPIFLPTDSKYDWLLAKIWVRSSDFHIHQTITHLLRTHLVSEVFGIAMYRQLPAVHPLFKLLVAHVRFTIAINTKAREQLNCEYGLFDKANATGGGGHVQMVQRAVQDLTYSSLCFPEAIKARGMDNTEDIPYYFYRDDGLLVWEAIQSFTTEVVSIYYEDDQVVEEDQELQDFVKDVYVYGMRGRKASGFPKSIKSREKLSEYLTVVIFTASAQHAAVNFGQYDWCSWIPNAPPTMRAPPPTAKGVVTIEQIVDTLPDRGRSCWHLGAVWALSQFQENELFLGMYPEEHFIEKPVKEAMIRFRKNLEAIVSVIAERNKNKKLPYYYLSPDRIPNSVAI
Test: In vitro inhibition of 5-lipoxygenase from RBL-1 cells
Kindly supply the reported pIC50 values for the records listed here.
Please keep in mind that pIC50 is minus log10 of the molar concentration; only the number is needed.

query: Dear colleague, I am looking for the recorded pIC50 of the following molecule: CCCCOc1ccc(C(CC)N(O)C(C)=O)cc1 (stereo not drawn)
result: 6.13

query: Okay, and CC(=O)N(O)C(C)c1ccc(OCc2ccncc2)cc1 (stereo not drawn) ?
result: 5.59

query: Entry CC(=O)N(O)C(C)c1ccc(OCc2c(C)cc(C)cc2C)cc1 (stereo not drawn) please
result: 6.21

----------
Molecular target: Polyunsaturated fatty acid 5-lipoxygenase (Rattus norvegicus, UniProt P12527)
Test: In vitro inhibition of 5-lipoxygenase from RBL-1 cells
recorded metric: log10(IC50) (log10 of the value in nM)
log10 IC50, nM

query: Query (compound): CCCCOc1ccc(CC(C)N(O)C(C)=O)cc1 (configuration not stated) ; field requested: log10(IC50)
result: 2.73

query: Here is the next compound: CCCCOc1ccc(C(C)N(O)C=O)cc1 (configuration not stated)
result: 3.28

query: Next record, please: CC(=O)N(O)C(C)c1ccc(OCc2ccccc2)cc1 (stereo in doubt; 7)
result: 2.57

query: For CC(=O)N(O)C(C)c1ccc(OCc2ccc3ccccc3n2)cc1 (configuration not stated) then?
result: 2.60

query: Another compound to check: CCCCOc1ccc(CCCN(O)C(C)=O)cc1
result: 2.51

query: Request: CC(=O)N(O)C(C)c1ccc(OC2c3ccccc3-c3ccccc32)cc1 (configuration not stated)
result: 3.69

query: And what about the compound CCCCOc1ccc(CCC(C)N(O)C(C)=O)cc1 (configuration not stated) ?
result: 2.56

query: And then CC(=O)N(O)C(C)c1ccc(OCCc2ccccc2)cc1 (configuration not stated) , what is it?
result: 2.61

query: Let us now turn to CCCCOc1ccc(CCN(O)C(C)=O)cc1
result: 2.58

query: And CCCCOc1cccc(C(C)N(O)C(C)=O)c1 (configuration not stated) ?
result: 2.59

query: Now consider CCCCOc1ccc(C(C)N(O)C(C)=O)cc1 (configuration not stated) .
result: 2.90

query: Likewise for CC(=O)N(O)C(c1ccc(OCc2ccccc2)cc1)C(C)C (configuration not stated) ?
result: 2.89
